# TARGET_ENTITY: full-length hPin1 (human, UniProt Q13526 1-163)
# Sequence (Q13526 whole entry): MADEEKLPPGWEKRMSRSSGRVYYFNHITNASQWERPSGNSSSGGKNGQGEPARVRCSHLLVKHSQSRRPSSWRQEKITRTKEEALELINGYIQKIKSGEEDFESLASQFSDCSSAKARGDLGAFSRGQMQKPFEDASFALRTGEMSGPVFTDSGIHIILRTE
# EXPERIMENT_SUMMARY: cell-based or functional assay
Square brackets hold non-standard residues; d marks the D form. * marks the point of attachment. Biotin = O=C1N[C@H]2[C@H](CS[C@H]2CCCCC(=O)*)N1; Phe(4-tBu) = CC(C)(C)c1ccc(C[C@H](N)C(=O)O)cc1; Bip = N[C@@H](Cc1ccc(-c2ccccc2)cc1)C(=O)O; pT = C[C@@H](OP(=O)(O)O)[C@H](N)C(=O)O; 2Nal = N[C@@H](Cc1ccc2ccccc2c1)C(=O)O; 2Thi = N[C@@H](Cc1cccs1)C(=O)O; Tle = CC(C)(C)[C@H](N)C(=O)O; NMeA = CN[C@@H](C)C(=O)O
Binary call on IC50(µM), blockade of the PPIase activity of hPin1, protease free PPIase assay with cut-off 20 µM: strictly below means Criterion met, and equality or higher means Criterion not met.

Take a look at these entries with their results.
| BINDER | CLASSIFICATION |
| --- | --- |
| Ac-K(Biotin)AA[2Nal][pT]P[Tle]Q-NH2 [peptide 7] | Criterion not met |
| Ac-K(Biotin)AA[2Thi][pT][NMeA][2Nal]Q-NH2 (SMILES CC(=O)N[C@@H](CCCCNC(=O)CCCC[C@@H]1SC[C@@H]2NC(=O)N[C@@H]21)C(=O)N[C@@H](C)C(=O)N[C@@H](C)C(=O)N[C@@H](Cc1cccs1)C(=O)N[C@H](C(=O)N(C)[C@@H](C)C(=O)N[C@@H](Cc1ccc2ccccc2c1)C(=O)N[C@@H](CCC(N)=O)C(N)=O)[C@@H](C)OP(=O)(O)O) [peptide 10] | Criterion met |
| Ac-K(Biotin)AA[Bip][pT]P[2Nal]Q-NH2 [peptide 6] | Criterion met |

*Q* In plain terms, does Ac-K(Biotin)AA[Phe(4-tBu)][pT][NMeA][2Nal]Q-NH2 [peptide 9] come in under 20 µM for IC50(µM), blockade of the PPIase activity of hPin1, protease free PPIase assay?
*A* Criterion met

*Q* In plain terms, does Ac-K(Biotin)AA[Phe(4-tBu)][pT]P[2Nal]Q-NH2 (SMILES CC(=O)N[C@@H](CCCCNC(=O)CCCC[C@@H]1SC[C@@H]2NC(=O)N[C@@H]21)C(=O)N[C@@H](C)C(=O)N[C@@H](C)C(=O)N[C@@H](Cc1ccc(C(C)(C)C)cc1)C(=O)N[C@H](C(=O)N1CCC[C@H]1C(=O)N[C@@H](Cc1ccc2ccccc2c1)C(=O)N[C@@H](CCC(N)=O)C(N)=O)[C@@H](C)OP(=O)(O)O) [peptide 1] come in under 20 µM for IC50(µM), blockade of the PPIase activity of hPin1, protease free PPIase assay?
*A* Criterion not met
